Target: WT-SQR (SDHC), IPO323 mitochondria (Zymoseptoria tritici, UniProt F9X9V6+F9XH52+O42772)
Sequence (F9WWR1 entry or part of it): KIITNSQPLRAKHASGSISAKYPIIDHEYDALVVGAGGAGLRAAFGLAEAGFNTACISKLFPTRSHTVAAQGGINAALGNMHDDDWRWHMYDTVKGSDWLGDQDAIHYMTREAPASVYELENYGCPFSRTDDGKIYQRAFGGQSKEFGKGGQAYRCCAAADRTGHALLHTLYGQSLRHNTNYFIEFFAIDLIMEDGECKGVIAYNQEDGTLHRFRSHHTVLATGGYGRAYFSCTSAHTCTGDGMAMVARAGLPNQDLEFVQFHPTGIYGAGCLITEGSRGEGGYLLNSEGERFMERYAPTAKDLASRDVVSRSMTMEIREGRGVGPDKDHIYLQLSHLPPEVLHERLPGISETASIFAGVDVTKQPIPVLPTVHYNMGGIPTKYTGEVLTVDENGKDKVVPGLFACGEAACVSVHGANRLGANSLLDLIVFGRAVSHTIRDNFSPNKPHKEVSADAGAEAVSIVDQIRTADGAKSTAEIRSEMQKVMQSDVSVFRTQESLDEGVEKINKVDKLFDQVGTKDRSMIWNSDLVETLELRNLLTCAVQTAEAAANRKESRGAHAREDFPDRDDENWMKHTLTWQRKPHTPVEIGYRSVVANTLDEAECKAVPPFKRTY
Sequence (F9X9V6 entry or part of it): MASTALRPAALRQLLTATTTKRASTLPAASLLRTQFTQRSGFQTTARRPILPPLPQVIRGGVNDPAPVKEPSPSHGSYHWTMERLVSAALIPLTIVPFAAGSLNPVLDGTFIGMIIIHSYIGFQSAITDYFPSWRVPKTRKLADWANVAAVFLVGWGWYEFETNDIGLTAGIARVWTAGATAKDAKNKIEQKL
Sequence (O42772 19-297): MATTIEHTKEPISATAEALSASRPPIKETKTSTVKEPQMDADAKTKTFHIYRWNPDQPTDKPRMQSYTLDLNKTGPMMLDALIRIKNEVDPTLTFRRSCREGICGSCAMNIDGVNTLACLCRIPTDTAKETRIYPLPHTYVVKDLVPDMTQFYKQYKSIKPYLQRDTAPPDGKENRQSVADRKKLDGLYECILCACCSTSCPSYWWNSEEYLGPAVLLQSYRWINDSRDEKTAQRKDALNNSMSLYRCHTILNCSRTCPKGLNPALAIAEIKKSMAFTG
Sequence (F9XH52 entry or part of it): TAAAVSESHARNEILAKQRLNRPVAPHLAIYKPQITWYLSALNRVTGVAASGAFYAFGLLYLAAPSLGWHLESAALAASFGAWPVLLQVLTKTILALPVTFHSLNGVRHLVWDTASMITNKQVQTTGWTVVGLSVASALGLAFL
Assay: Succinate-quinone (SQR) SDHI sensitivity assay on purified mitochondria, IPO323
Assay type: biochemical
Conditions: mitochondria of IPO323; mean of three determinations ± SD; read-out: Succinate-quinone IC50, IPO323 (SDHC)
Documented pIC50 across a set of compounds
// returns pIC50 (minus log10 of molar concentration), number only

Consider the worked cases shown below.
1. CC(C)C1C2CCC1c1c(NC(=O)c3cn(C)nc3C(F)F)cccc12 (stereo not shown) [Isopyrazam]; 9.10
2. Cn1cc(C(=O)Nc2cccc3c2[C@@H]2CC[C@H]3C2=C(Cl)Cl)c(C(F)F)n1 (racemic) [Benzovindiflupyr]; 9.15
3. Cn1cc(C(=O)Nc2ccc(F)cc2-c2ccc(Cl)c(Cl)c2)c(C(F)F)n1 [Bixafen]; 8.85

// below: pIC50 requested for another compound
Query: Look up pIC50 with WT-SQR (SDHC), IPO323 mitochondria (Zymoseptoria tritici, UniProt F9X9V6+F9XH52+O42772) for this compound: Cn1cc(C(=O)Nc2ccccc2-c2cc(F)c(F)c(F)c2)c(C(F)F)n1 [Fluxapyroxad]
Response: 8.37
